For each entry below, report its inhibition at 10 µM value.
- Experimental System: human C-terminal DNMT3A (623-908a.a.) (Homo sapiens, UniProt Q9Y6K1)
- Construct: The human C-terminal DNMT3A (623-908a.a.); made in house
- Sequence (Q9Y6K1 627-912 limits assumed): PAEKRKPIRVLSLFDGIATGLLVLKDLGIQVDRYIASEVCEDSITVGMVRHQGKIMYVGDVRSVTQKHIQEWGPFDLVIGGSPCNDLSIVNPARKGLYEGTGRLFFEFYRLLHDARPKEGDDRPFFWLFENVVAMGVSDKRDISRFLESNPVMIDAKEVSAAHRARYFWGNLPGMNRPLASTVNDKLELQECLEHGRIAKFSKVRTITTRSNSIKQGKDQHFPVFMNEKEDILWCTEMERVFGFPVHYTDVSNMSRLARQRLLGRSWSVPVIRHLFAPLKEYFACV
- Method: hDNMT3A assay (restriction-based fluorescence assay)
- Format: biochemical
- Condition: read-out: hDNMT 3A inhibition, Inhibition (%) 10 μM
Entry rule: numbers only, all in %.

Name the recorded inhibition at 10 µM for COc1ccc2cc1Oc1ccc(cc1)CC1c3c(cc(OC)c4c3Oc3cc5c(cc3O4)CCN(C)[C@H]5C2)CCN1C(=O)/C=C/CN(C)C (stereo partly drawn) .
32

Name the recorded inhibition at 10 µM for COc1cc2c3c4c1Oc1cc5c(cc1O4)[C@H](Cc1ccc(OS(=O)(=O)C(F)(F)F)c(c1)Oc1ccc(cc1)C[C@@H]3N(C)CC2)N(C)CC5 .
0

Name the recorded inhibition at 10 µM for COc1ccc2cc1Oc1ccc(cc1)C[C@H]1c3c(cc(OC)c4c3Oc3cc5c(cc3O4)CCN(C)[C@H]5C2)CCN1CCCCn1cnc2c(N)ncnc21 .
21

Name the recorded inhibition at 10 µM for COc1ccc2cc1Oc1ccc(cc1)CC1c3c(cc(OC)c4c3Oc3cc5c(cc3O4)CCN(C)[C@H]5C2)CCN1C(=O)CCCl (stereo partly drawn) .
57

Name the recorded inhibition at 10 µM for COc1ccc2cc1Oc1ccc(cc1)C[C@H]1c3c(cc(OC)c4c3Oc3cc5c(cc3O4)CCN(C)[C@H]5C2)CCN1CC#N .
69

Name the recorded inhibition at 10 µM for CCN(CC)CCCNC(=O)N1CCc2cc(OC)c3c4c2[C@@H]1Cc1ccc(cc1)Oc1cc(ccc1OC)C[C@H]1c2cc(c(cc2CCN1C)O3)O4 .
60
